In this section, each of the molecules is paired with its reported pIC50.
- target: h17β-HSD1 (Homo sapiens)
- Construct: h17β-HSD1 was obtained after precipitation with ammonium sulfate from the cytosolic fraction
- methodNotes: Inhibition of h17β-HSD1 in cell-free assay
- measurementParameters: human placental cytosolic fraction, substrate E1 [500 nM], cofactor NADH [500 μM]
Field pIC50 (float): negative decimal logarithm of the concentration in molar.

Record excerpt, results attached:
| molecule | testResult |
| --- | --- |
| COc1cccc(N(C)C(=O)c2ccc(-c3cccc(C)c3)cc2)c1 [Compound 6a] | 5.19 |
| Cc1cccc(N(C)C(=O)c2ccc(-c3ccc4c(c3)OCO4)cc2)c1 [Compound 23a] | 4.96 |
| Cc1cccc(-c2ccc(C(=O)N(C)Cc3cccc(O)c3)cc2)c1F [Compound 25] | 4.51 |
| COc1cccc(N(C)C(=O)c2ccc(-c3ccc(OC)c(OC)c3)cc2)c1 [Compound 16a] | 4.07 |

Item COc1cccc(N(C)C(=O)c2ccc(-c3cccc(F)c3)cc2)c1 [Compound 13a] has what recorded pIC50?
5.10

====

- target: h17β-HSD1 (Homo sapiens, UniProt P14061)
- Construct: h17β-HSD1 was obtained after precipitation with ammonium sulfate from the cytosolic fraction; from tissue; host or cells: human placenta, cytosolic fraction
- Sequence (P14061 whole entry): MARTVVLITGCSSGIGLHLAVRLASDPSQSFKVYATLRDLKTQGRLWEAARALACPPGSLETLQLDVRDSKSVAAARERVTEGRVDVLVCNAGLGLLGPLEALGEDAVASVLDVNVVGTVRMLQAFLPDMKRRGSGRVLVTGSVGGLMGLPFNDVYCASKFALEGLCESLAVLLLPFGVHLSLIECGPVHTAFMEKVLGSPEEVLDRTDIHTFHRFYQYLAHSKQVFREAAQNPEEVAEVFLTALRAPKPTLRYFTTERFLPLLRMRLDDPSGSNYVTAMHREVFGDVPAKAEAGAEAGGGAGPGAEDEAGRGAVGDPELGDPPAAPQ
- methodNotes: Inhibition of h17β-HSD1 in cell-free assay
- Format: biochemical
- measurementParameters: 1 μM; human placental cytosolic fraction, substrate E1 [500 nM], cofactor NADH [500 μM]; read-out: % inh. at 1 μM h17β-HSD1
# inhibition at 1 µM values compiled below

| molecule | testResult |
| --- | --- |
| COc1ccc(N(C)C(=O)c2ccc(-c3cccc(OC)c3)cc2)cc1 [Compound 11a] | < 10% |

Param readout = inhibition at 1 µM; param system = h17β-HSD1 (Homo sapiens, UniProt P14061); param query = COc1cccc(N(C)C(=O)c2ccc(-c3ccccc3)cc2)c1 ; response: value
22%

I'm curious: which inhibition at 1 µM was measured for COc1cccc(N(C)C(=O)c2ccc(-c3cccc(OC)c3F)cc2)c1 [Compound 19a] tested on h17β-HSD1 (Homo sapiens, UniProt P14061)?
35%

What value of inhibition at 1 µM on h17β-HSD1 (Homo sapiens, UniProt P14061) does COc1cccc(N(C)C(=O)c2ccc(-c3ccc(F)c(F)c3)cc2)c1 [Compound 18a] have?
< 10%

What is its inhibition at 1 µM for h17β-HSD1 (Homo sapiens, UniProt P14061)? Entry: CN(C(=O)c1ccc(-c2cccc(O)c2)cc1)c1cccc(O)c1
15%

Field: inhibition at 1 µM (h17β-HSD1 (Homo sapiens, UniProt P14061)). Entry: COc1cccc(-c2ccc(C(=O)N(C)c3cccc(C)c3)cc2)c1
< 10%

Give recorded inhibition at 1 µM with h17β-HSD1 (Homo sapiens, UniProt P14061) for the following molecule: COc1ccc(-c2ccc(C(=O)N(C)c3ccc(OC)cc3)cc2)cc1 [Compound 12a]
< 10%

Fill in the recorded inhibition at 1 µM for this molecule, with h17β-HSD1 (Homo sapiens, UniProt P14061) as test system: COc1cccc(N(C)C(=O)c2ccc(-c3ccccc3OC)cc2)c1
< 10%

What value of inhibition at 1 µM on h17β-HSD1 (Homo sapiens, UniProt P14061) does COc1cccc(C(=O)N(C)c2ccc(-c3cccc(OC)c3)cc2)c1 [Compound 24a] have?
< 10%

Notebook entry, h17β-HSD1 (Homo sapiens, UniProt P14061) assay: inhibition at 1 µM of COc1cccc(N(C)C(=O)c2ccc(-c3ccc4c(c3)OCO4)cc2)c1 [Compound 22a] = ?
< 10%
